Biological target: Programmed cell death protein 1/Programmed cell death 1 ligand 1 (Homo sapiens, UniProt Q15116+Q9NZQ7)
Sequence (Q15116 whole entry): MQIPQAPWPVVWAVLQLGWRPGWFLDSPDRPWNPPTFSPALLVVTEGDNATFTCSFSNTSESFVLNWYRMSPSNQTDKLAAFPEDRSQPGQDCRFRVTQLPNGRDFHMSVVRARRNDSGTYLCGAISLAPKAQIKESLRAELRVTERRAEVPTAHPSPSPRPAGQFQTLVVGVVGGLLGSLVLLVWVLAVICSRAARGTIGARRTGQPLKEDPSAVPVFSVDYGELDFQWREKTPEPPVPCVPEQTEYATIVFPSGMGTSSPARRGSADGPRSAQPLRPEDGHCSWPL
Sequence (Q9NZQ7 whole entry): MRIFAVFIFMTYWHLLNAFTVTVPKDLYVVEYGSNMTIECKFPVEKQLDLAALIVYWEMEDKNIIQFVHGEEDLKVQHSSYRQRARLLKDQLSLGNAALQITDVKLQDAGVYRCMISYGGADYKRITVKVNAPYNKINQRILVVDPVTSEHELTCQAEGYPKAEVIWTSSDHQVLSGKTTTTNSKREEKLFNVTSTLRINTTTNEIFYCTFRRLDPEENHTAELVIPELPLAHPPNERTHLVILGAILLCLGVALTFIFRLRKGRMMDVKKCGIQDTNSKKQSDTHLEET
Experiment: Homogenouse Time-Resolved Fluorescence (HTRF) Binding Assay: Experimental Procedure1. The compound was formulated to 10 concentrations with a three-fold concentration gradient with 100% DMSO.2. The solution of the compound in DMSO was added to Dilute Buffer, and mixed evenly and then transferred to a 96-well plate.3. PD-L1 was diluted with Dilute Buffer and added to the 96-well plate above.4. PD-1 was diluted with Dilute Buffer, then added to the 96-well plate above and incubated at room temperature for 30 minutes.5. One portion of anti-tag1-Eu and one portion of anti-tag2-XL665 were added to Detection Buffer, mixed evenly and transferred to the 96-well plate above.6. The mixed solution in the 96-well plate were incubated at room temperature for 1 to 24 hours.7. HTRF values were read by Envision.
pIC50: −log10 of the molar value.
test readout: pIC50

compound="Cc1c(/C=C/c2cc(CNC(C)(CO)C(=O)O)ccc2C(F)(F)F)cccc1-c1ccccc1F (configuration not stated)" value=7.70
compound=Cc1c(/C=C/c2cc(CN[C@@](C)(CO)C(=O)O)ccc2C(F)(F)F)cccc1-c1ccc2ncoc2c1 value=5.96
compound="Cc1c(CCc2cc(CNC(C)(CO)C(=O)O)ccc2C(F)(F)F)cccc1-c1ccccc1 (configuration not stated)" value=7.07
compound="Cc1c(/C=C/c2cc(CNC(CO)C(=O)O)ccc2C(F)(F)F)cccc1-c1ccccc1F (configuration not stated)" value=7.89
compound="Cc1c(/C=C/c2cc(CNC(C)(CO)C(=O)O)ccc2C(F)(F)F)cccc1-c1cccc(F)c1 (configuration not stated)" value=7.34
compound=Cc1c(/C=C/c2cc(CN[C@@](C)(CO)C(=O)O)ccc2C(F)(F)F)cccc1-c1cnccn1 value=6.27
compound="Cc1ccc(CNC(C)(CO)C(=O)O)cc1/C=C/c1cccc(-c2cccc(F)c2)c1C (configuration not stated)" value=7.24
compound="Cc1c(CCc2cc(CNC(C)C(=O)O)ccc2C(F)(F)F)cccc1-c1ccccc1 (configuration not stated)" value=7.36
compound=Cc1c(/C=C/c2cc(CN[C@@](C)(CO)C(=O)O)ccc2C(F)(F)F)cccc1-c1ccc2cn(C)nc2c1 value=6.06
compound="COc1ccc(-c2cccc(/C=C/c3cc(CNC(C)(CO)C(=O)O)ccc3C)c2C)cc1 (configuration not stated)" value=5.51
compound="Cc1c(/C=C/c2cc(CNC(CO)C(=O)O)ccc2C(F)(F)F)cccc1-c1ccc2c(c1)OCCO2 (configuration not stated)" value=7.85
compound="Cc1c(/C=C/c2cc(CNC(C)(CO)C(=O)O)ccc2C(F)(F)F)cccc1-c1ccc(F)cc1 (configuration not stated)" value=6.49
compound="Cc1c(CCc2cc(CNC(CO)C(=O)O)ccc2C(F)(F)F)cccc1-c1ccccc1 (configuration not stated)" value=7.34
compound="Cc1c(/C=C/c2cc(C(C)NCC(=O)O)ccc2C(F)(F)F)cccc1-c1ccccc1 (configuration not stated)" value=7.62
compound="Cc1ccc(CNC(C)(CO)C(=O)O)cc1/C=C/c1cccc(-c2ccc(F)cc2)c1C (configuration not stated)" value=5.85
compound=Cc1c(/C=C/c2cc(CN[C@@](C)(CO)C(=O)O)ccc2C(F)(F)F)cccc1-c1ccccn1 value=5.66
compound=Cc1c(/C=C/c2cc(CN[C@@](C)(CO)C(=O)O)ccc2C(F)(F)F)cccc1-c1cccnc1 value=6.24
